system-tested: T1, Spt6 from S. cerevisiae lacking the first unstructured 297 residues (Spt6ΔN) (S. cerevisiae, UniProt P23615 298-1451)
T1 sequence (looked up): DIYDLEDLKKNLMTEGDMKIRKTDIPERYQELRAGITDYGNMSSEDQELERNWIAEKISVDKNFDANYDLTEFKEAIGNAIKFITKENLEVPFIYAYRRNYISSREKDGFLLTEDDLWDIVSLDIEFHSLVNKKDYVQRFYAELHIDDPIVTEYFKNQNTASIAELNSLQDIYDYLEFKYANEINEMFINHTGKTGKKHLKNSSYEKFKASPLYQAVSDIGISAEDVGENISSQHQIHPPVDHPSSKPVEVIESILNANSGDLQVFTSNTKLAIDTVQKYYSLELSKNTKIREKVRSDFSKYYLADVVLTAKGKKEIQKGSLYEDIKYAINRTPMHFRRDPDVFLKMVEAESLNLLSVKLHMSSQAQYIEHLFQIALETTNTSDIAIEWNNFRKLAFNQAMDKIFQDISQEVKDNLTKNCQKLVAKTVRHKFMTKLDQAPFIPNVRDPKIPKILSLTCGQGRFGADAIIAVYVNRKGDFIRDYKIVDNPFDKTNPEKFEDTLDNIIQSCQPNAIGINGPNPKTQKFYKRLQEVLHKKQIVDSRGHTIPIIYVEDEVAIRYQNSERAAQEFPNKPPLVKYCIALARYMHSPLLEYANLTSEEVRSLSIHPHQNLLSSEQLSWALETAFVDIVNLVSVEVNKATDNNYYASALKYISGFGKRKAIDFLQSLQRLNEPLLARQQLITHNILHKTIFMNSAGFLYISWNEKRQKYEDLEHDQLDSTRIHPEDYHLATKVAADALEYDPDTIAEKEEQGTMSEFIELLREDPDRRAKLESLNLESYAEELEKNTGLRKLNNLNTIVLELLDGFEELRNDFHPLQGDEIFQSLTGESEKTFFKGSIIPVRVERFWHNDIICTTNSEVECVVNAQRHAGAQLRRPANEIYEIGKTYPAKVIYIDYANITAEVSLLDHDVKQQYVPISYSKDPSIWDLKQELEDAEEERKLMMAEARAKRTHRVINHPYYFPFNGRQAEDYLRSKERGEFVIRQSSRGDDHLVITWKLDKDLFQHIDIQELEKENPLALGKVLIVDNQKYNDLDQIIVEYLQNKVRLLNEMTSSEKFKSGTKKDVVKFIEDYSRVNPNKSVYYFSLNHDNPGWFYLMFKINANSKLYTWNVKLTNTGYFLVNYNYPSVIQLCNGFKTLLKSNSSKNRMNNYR
experiment: fluorescence polarisation
Square brackets hold non-standard residues; d marks the D form. Ends that are not written are not given here. pY = N[C@@H](Cc1ccc(OP(=O)(O)O)cc1)C(=O)O
measurement-name: pKd
Numbers only, as −log10 of the molar value.

Query: pKd; subject: {5,6‑FAM}-PS[pY]SPTSPS[pY]SPTSPS [(pY1-CTD)2, FAM-labelled tyrosine-phosphorylated CTD diheptad] 5.40

These measurements were taken from paper PMC7327521.
